Give LD50 at 0.5 h for every item shown.
# PROTOCOL: 30 minute LD50 (acute toxicity without sound)
# CONDITION_LABEL: mouse, in vivo, ip
One number for each entry, in mg/kg.

COMPOUND	LD50 at 0.5 h, mg/kg
Cc1c(N2CCOCC2)nn2cnnc2c1C [R7 Methyl; R3 H; R8 CH3; R6 Morpholino]	272
Cc1c(N2CCCCC2)nn2c(C)nnc2c1C [R7 Methyl; R3 CH3; R8 CH3; R6 Piperidino]	141
Cc1cc2nnc(C)n2nc1N1CCCCC1	327

Now take the following compound into account.
The reported value for Cc1c(N2CCCC2)nn2cnnc2c1C in terms of LD50 at 0.5 h is 277
